# Test system: PANC-1 complex spheroid growth, percent test/control
# experimentNotes: Anticancer human tumor PANC-1 cell line growth inhibition [Asc];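 further: spheroids exposed to agents for 7 days; percent viability relative to DMSO vehicle wells taken as 100%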
# conditions: second compound 0.00316 µM; first compound 0.1 µM; active compounds read low
viability, T/C reference

Worked examples follow.
Which viability, T/C is reported with PANC-1 complex spheroid growth, percent test/control for this entry: NC1CCC(NC2CC2c2ccccc2)CC1 (centres undefined) + CNC(C)C(=O)NC1CN(S(=O)(=O)c2cccc(S(=O)(=O)N3CCC4CCC(C(=O)NC(c5ccccc5)c5ccccc5)N4C(=O)C(NC(=O)C(C)NC)C3)c2)CCC2CCC(C(=O)NC(c3ccccc3)c3ccccc3)N2C1=O ? 87.8%

Can you look up viability, T/C on PANC-1 complex spheroid growth, percent test/control for C=C(F)C(=O)N1CCN(c2nc(OCC3CCCN3C)nc3c2CCN(c2cccc4cccc(Cl)c24)C3)CC1CC#N (centres undefined) + CNC(C)C(=O)NC1CN(S(=O)(=O)c2cccc(S(=O)(=O)N3CCC4CCC(C(=O)NC(c5ccccc5)c5ccccc5)N4C(=O)C(NC(=O)C(C)NC)C3)c2)CCC2CCC(C(=O)NC(c3ccccc3)c3ccccc3)N2C1=O ? 99.1%

Record C#Cc1c(F)ccc2cc(O)cc(-c3ncc4c(N5CC6CCC(C5)N6)nc(OCC56CCCN5CC(F)C6)nc4c3F)c12 (centres undefined) + CNC(C)C(=O)NC1CN(S(=O)(=O)c2cccc(S(=O)(=O)N3CCC4CCC(C(=O)NC(c5ccccc5)c5ccccc5)N4C(=O)C(NC(=O)C(C)NC)C3)c2)CCC2CCC(C(=O)NC(c3ccccc3)c3ccccc3)N2C1=O : what is its viability, T/C with PANC-1 complex spheroid growth, percent test/control? 85.7%

// next item, viability, T/C requested
For the record O=C(c1ccc(F)c(F)c1Nc1ccc(I)cc1F)N1CC(O)([C@@H]2CCCCN2)C1 + CNC(C)C(=O)NC1CN(S(=O)(=O)c2cccc(S(=O)(=O)N3CCC4CCC(C(=O)NC(c5ccccc5)c5ccccc5)N4C(=O)C(NC(=O)C(C)NC)C3)c2)CCC2CCC(C(=O)NC(c3ccccc3)c3ccccc3)N2C1=O , what value of viability, T/C is listed for PANC-1 complex spheroid growth, percent test/control? 88%

====

Overview of reported viability, T/C across a group of compounds:
# Tested on: PANC-1 complex spheroid growth, percent test/control
# experimentNotes: Anticancer human tumor PANC-1 cell line growth inhibition [Asc];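 further: spheroids exposed to agents for 7 days; percent viability relative to DMSO vehicle wells taken as 100%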
# conditions: second compound 3.16 µM; first compound 0.00316 µM; active compounds read low
Report as a plain number; the unit % is understood.

Name the reported viability, T/C value associated with the compound CNC(C)C(=O)NC1CN(S(=O)(=O)c2cccc(S(=O)(=O)N3CCC4CCC(C(=O)NC(c5ccccc5)c5ccccc5)N4C(=O)C(NC(=O)C(C)NC)C3)c2)CCC2CCC(C(=O)NC(c3ccccc3)c3ccccc3)N2C1=O (stereo not drawn) + Cc1c(S(C)(=O)=O)c(-c2cc(F)cc(N3CCN(c4ccc(NS(=O)(=O)c5ccc(NC(CCN6CCC(C(=O)OCCCP(=O)(O)O)CC6)CSc6ccccc6)c(S(=O)(=O)C(F)(F)F)c5)cc4)CC3)c2)c(-c2ccc(Cl)cc2)n1C(C)C 104

Continuing:
May I ask what viability, T/C has been recorded for Cn1ncnc1[C@H]1c2n[nH]c(=O)c3cc(F)cc(c23)N[C@@H]1c1ccc(F)cc1 + Cc1c(S(C)(=O)=O)c(-c2cc(F)cc(N3CCN(c4ccc(NS(=O)(=O)c5ccc(NC(CCN6CCC(C(=O)OCCCP(=O)(O)O)CC6)CSc6ccccc6)c(S(=O)(=O)C(F)(F)F)c5)cc4)CC3)c2)c(-c2ccc(Cl)cc2)n1C(C)C ? 107

viability, T/C for COc1c(OCCCN2CCOCC2)ccc2c3n(c(=NC(=O)c4cnc(N)nc4)nc12)CCN3 + Cc1c(S(C)(=O)=O)c(-c2cc(F)cc(N3CCN(c4ccc(NS(=O)(=O)c5ccc(NC(CCN6CCC(C(=O)OCCCP(=O)(O)O)CC6)CSc6ccccc6)c(S(=O)(=O)C(F)(F)F)c5)cc4)CC3)c2)c(-c2ccc(Cl)cc2)n1C(C)C ? 122
